List of log10 Ki tested on Cannabinoid receptor 2 (Homo sapiens).
Sequence (P34972 whole entry): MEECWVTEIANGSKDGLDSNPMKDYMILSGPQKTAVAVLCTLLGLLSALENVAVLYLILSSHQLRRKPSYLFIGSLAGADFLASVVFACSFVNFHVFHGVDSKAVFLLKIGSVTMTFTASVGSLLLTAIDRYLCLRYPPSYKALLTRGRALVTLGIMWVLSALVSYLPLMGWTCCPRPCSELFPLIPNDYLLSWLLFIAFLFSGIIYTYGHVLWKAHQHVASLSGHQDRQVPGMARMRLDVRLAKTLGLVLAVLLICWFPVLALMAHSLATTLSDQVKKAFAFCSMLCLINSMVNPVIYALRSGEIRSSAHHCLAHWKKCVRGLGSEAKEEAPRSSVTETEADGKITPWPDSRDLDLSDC
endpoint label: log10 Ki (log10 of the value in nM)

>>> recorded_result("CCCCCCC1(c2cc(O)c3c(c2)OC(C)(C)[C@@H]2CC=C(C)C[C@@H]32)SCCCS1")
0.56
>>> recorded_result("CC1=CC[C@@H]2[C@@H](C1)c1c(O)cc(C(C)(C)CCCCC#N)cc1OC2(C)C")
0.04
>>> recorded_result("C=C(C)C1CCC(C)=C[C@H]1c1c(O)cc(-c2ccc(C)cc2)cc1O (stereo not given in full)")
2.57
>>> recorded_result("C=C(C)C1CCC(C)=C[C@H]1c1c(O)cc(C2(CCCCCC)CC2(Cl)Cl)cc1O (stereo not given in full)")
1.52
>>> recorded_result("C=C(CCCCCC)c1cc(O)c2c(c1)OC(C)(C)[C@@H]1CC=C(C)C[C@@H]21")
0.52
>>> recorded_result("CC1=CC[C@@H]2[C@@H](C1)c1c(O)cc(Oc3ccccc3)cc1OC2(C)C")
1.37
>>> recorded_result("CC1=CC[C@@H]2[C@@H](C1)c1c(O)cc(C3(C#N)CCCC3)cc1OC2(C)C")
1.40
>>> recorded_result("C=C(C)C1CCC(C)=C[C@H]1c1c(O)cc(C2(C#N)CCCCC2)cc1O (stereo not given in full)")
2.05
>>> recorded_result("C=C(C)C1CCC(C)=C[C@H]1c1c(O)cc(C2(CCCCCC)SCCS2)cc1O (stereo not given in full)")
1.70
>>> recorded_result("CC1=CC[C@@H]2[C@@H](C1)c1c(O)cc(C34CC5CC(CC(C5)C3)C4)cc1OC2(C)C")
1.72
>>> recorded_result("CC1=CC[C@@H]2[C@@H](C1)c1c(O)cc(C3(C#N)CCCCC3)cc1OC2(C)C")
0.59
>>> recorded_result("CCCCCCC1(c2cc(O)c3c(c2)OC(C)(C)[C@@H]2CC=C(C)C[C@@H]32)SCCS1")
-0.28
>>> recorded_result("CCCCCCC1(c2cc(O)c3c(c2)OC(C)(C)[C@@H]2CC=C(C)C[C@@H]32)CCCC1")
0.28
>>> recorded_result("CC1=CC[C@@H]2[C@@H](C1)c1c(O)cc(C(C)(C)C3CCCCCC3)cc1OC2(C)C")
-0.66
>>> recorded_result("CCCc1ccc(-c2cc(O)c3c(c2)OC(C)(C)[C@@H]2CC=C(C)C[C@@H]32)cc1")
2.03
